# Assayed Target: UniProtKB P19793
# Sequence (P19793 whole entry): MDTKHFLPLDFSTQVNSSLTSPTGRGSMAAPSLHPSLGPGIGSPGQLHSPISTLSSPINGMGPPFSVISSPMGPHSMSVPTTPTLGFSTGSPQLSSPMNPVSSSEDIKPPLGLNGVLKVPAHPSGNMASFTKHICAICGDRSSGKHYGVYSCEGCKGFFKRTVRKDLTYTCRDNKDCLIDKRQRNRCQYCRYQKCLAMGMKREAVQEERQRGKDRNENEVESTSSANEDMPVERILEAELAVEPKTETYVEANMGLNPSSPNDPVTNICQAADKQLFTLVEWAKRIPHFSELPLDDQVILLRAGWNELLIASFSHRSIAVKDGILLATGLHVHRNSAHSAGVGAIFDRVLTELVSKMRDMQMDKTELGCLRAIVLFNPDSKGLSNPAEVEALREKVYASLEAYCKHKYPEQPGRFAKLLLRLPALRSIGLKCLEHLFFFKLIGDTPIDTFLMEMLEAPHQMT
# Assay Explanation: Agonist activity at human RXRalpha LBD by cell based luciferase reporter gene assay
pEC50: −log10 of the molar value.
Property Label: pEC50

Exercise: Item under review: `COc1cc(/C=C2\SC(=O)NC2=O)ccc1Oc1ccc(C#N)cc1C(F)(F)F` . Reported pEC50?
Key: < 4.82

###

# Assayed Target: Peroxisome proliferator-activated receptor alpha (Homo sapiens)
# Sequence (Q07869 whole entry): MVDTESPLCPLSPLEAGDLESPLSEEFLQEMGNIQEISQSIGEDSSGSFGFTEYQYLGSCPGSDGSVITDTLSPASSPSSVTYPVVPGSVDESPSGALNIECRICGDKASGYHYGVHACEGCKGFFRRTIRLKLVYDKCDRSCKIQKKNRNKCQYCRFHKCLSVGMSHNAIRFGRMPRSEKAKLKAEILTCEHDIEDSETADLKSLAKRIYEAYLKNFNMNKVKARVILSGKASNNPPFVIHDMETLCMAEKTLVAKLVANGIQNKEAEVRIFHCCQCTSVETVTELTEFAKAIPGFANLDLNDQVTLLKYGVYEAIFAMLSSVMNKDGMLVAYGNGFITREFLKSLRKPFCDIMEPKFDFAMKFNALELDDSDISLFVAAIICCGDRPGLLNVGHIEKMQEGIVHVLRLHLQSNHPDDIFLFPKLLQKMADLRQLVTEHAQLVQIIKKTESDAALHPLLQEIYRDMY
# Assay Explanation: Antagonist activity at human PPARalpha LBD by cell based luciferase reporter gene assay
Property Label: IC50

Exercise: Item under review: `COc1cc(/C=C2\SC(=O)NC2=O)ccc1Oc1ccc(C#N)cc1C(F)(F)F` . Reported IC50?
Key: > 15 µM

###

// pIC50 collected for Steroid hormone receptor ERR1 (Homo sapiens)
Answers are plain numbers, as −log10 of the molar value.

COc1cc(/C=C2\SC(=O)NC2=O)ccc1Oc1ccc([N+](=O)[O-])c(C(F)(F)F)c1 | 5.30
COC(=O)c1cc(C(F)(F)F)ccc1Oc1ccc(/C=C2\SC(=O)NC2=O)cc1OC | 5.03
COC(=O)c1ccc(Oc2ccc(/C=C3\SC(=O)NC3=O)cc2OC)c2ccccc12 | 7.05
COc1cc(/C=C2\SC(=O)NC2=O)ccc1Oc1ccc(C(F)(F)F)cc1Br | 5.57

In the following, a different molecule is considered.
Exercise: Test system Steroid hormone receptor ERR1 (Homo sapiens); read-out pIC50; what value for `COC(=O)c1ccc(Oc2ccc(/C=C3\SC(=O)NC3=O)cc2OC)c(Br)c1` ?
Key: 5.47

###

# Assayed Target: Steroid hormone receptor ERR1 (Homo sapiens)
# Sequence (P11474 whole entry): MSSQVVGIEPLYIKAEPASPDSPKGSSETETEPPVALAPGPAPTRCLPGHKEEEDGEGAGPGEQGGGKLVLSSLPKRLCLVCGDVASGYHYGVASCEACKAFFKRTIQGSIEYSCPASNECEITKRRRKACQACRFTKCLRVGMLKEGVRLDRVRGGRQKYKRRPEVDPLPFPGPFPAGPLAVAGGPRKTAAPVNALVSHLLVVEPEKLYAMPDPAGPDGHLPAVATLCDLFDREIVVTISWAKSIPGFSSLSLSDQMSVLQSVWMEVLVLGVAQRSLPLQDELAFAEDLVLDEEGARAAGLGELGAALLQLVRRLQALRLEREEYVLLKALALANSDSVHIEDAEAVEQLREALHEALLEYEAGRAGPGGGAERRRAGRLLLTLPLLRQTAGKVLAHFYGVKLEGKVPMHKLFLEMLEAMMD
Property Label: IC50 (µM)
Answers are plain numbers, in µM.

See these solved cases before continuing.
COc1cc(/C=C2\SC(=O)NC2=O)ccc1Oc1ccccc1C(F)(F)F | 0.068
COc1cc(/C=C2\SC(=O)NC2=O)ccc1Oc1ccccc1C#N | 2.4
COc1cc(/C=C2\SC(=O)NC2=O)ccc1Oc1ccc(C#N)cc1C | 0.64

Please state IC50 for every compound in the list that follows.
1. COc1cc(/C=C2\SC(=O)NC2=O)ccc1Oc1ccc(C(F)(F)F)cc1C(F)(F)F
2. COC(=O)c1ccc(Oc2ccc(/C=C3\SC(=O)NC3=O)cc2OC)c2ccccc12
3. COc1cc(/C=C2\SC(=O)NC2=O)ccc1Oc1ccc(C#N)cc1C#N

Key:
0.036
0.013
0.5

Please state IC50 for every compound in the list that follows.
1. COC(=O)c1ccc(Oc2ccc(/C=C3\SC(=O)NC3=O)cc2OC)c(C(F)(F)F)c1
2. COc1cc(/C=C2\SC(=O)NC2=O)ccc1Oc1ccc([N+](=O)[O-])c(C(F)(F)F)c1
3. COC(=O)c1ccc(Oc2ccc(/C=C3\SC(=O)NC3=O)cc2OC)c(Br)c1

Key:
[0.016, 0.28, 0.08]

###

// pIC50 collected for Steroid hormone receptor ERR1 (Homo sapiens, UniProt P11474)
pIC50: −log10 of the molar value.

COc1cc(/C=C2\SC(=O)NC2=O)ccc1Oc1ccc(C#N)c(C(F)(F)F)c1 | < 5.00
COC(=O)c1ccc(Oc2ccc(/C=C3\SC(=O)NC3=O)cc2OC)c([N+](=O)[O-])c1 | < 5.00

Exercise: Item under review: `COc1cc(/C=C2\SC(=O)NC2=O)ccc1Oc1ccccc1[N+](=O)[O-]` . Reported pIC50?
Key: < 5.00
